# assay.name: Half life in Sprague-Dawley rat at 50 mg/kg, po via gavage administered as a single dose measured upto 24 hrs by LC/MS/MS analysis
# Format: ADME, organism-based
# test.context: in vivo
property: half-life (h)

                                        smi  value_measured
0  C/C(=N\NC(=N)N)c1sc(-c2ccc(C#CCCN3CCC3)cc2)nc1C             2.9

###

# Test system: Staphylococcus aureus
# assay.name: microbe, parasite or virus in culture
# test.context: NRS 107
# Description: Antimicrobial activity against methicillin-sensitive Staphylococcus aureus NRS 107 by broth liquid microdilution method
So basically, if MBC comes in under 8 µg/mL it's T, and if it's 8 µg/mL or more it's F.

molecule	class.assignment
C/C(=N\NC(=N)N)c1sc(-c2ccc(C#CCCN3CC(O)C3)cc2)nc1C	T
CC(=O)NC[C@H]1CN(c2ccc(N3CCOCC3)c(F)c2)C(=O)O1 [LINEZOLID]	F
C/C(=N\NC(=N)N)c1sc(-c2ccc(C#CCCN3CCSC3)cc2)nc1C	F
CN[C@H](CC(C)C)C(=O)N[C@H]1C(=O)N[C@@H](CC(N)=O)C(=O)N[C@H]2C(=O)N[C@H]3C(=O)N[C@H](C(=O)N[C@H](C(=O)O)c4cc(O)cc(O)c4-c4cc3ccc4O)[C@H](O)c3ccc(c(Cl)c3)Oc3cc2cc(c3O[C@@H]2O[C@H](CO)[C@@H](O)[C@H](O)[C@H]2O[C@H]2C[C@](C)(N)[C@H](O)[C@H](C)O2)Oc2ccc(cc2Cl)[C@H]1O [VANCOMYCIN]	T
